protocol.notes: Evaluation of pharmacokinetic parameters for Nisoldipine following oral administration of 17 to 51 mg of Nisoldipine extended release tablets.
Type: ADME, organism-based
condition.summary: human, in vivo, dose 17-51 mg, dosed compound id 7, dosed compound name NISOLDIPINE, tissue Plasma, read-out: t1/2-elimination (converted)
assay.metric: half-life (min)
The figure you give is taken to be in min; do not add the unit.

Value of measured half-life for the entry COC(=O)C1=C(C)NC(C)=C(C(=O)OCC(C)C)C1c1ccccc1[N+](=O)[O-] (stereo unspecified) : 822

---

protocol.notes: Evaluation of pharmacokinetic parameters for Nisoldipine following oral administration of 17 to 51 mg of Nisoldipine extended release tablets.
Assay type: ADME, organism-based
condition.summary: human, in vivo, dose 17-51 mg, dosed compound id 7, dosed compound name NISOLDIPINE, tissue Plasma
assay.metric: Tmax

Value of measured Tmax for the entry COC(=O)C1=C(C)NC(C)=C(C(=O)OCC(C)C)C1c1ccccc1[N+](=O)[O-] (stereo unspecified) [NISOLDIPINE] : 9.2 h

---

protocol.notes: Evaluation of pharmacokinetic parameters for Nisoldipine following oral administration of 17 to 51 mg of Nisoldipine extended release tablets.
Assay type: ADME, organism-based
condition.summary: human, in vivo, dose 17-51 mg, dosed compound id 7, dosed compound name NISOLDIPINE, tissue Plasma
assay.metric: bioavailability (%)
The figure you give is taken to be in %; do not add the unit.

Value of measured bioavailability for the entry COC(=O)C1=C(C)NC(C)=C(C(=O)OCC(C)C)C1c1ccccc1[N+](=O)[O-] (stereo unspecified) : 5

Source listed as ChEMBL document CHEMBL3832552.
